So I've got a bunch of molecules here, and I need their RP-LC retention time values.
Experiment: gradient 5% acetonitrile 3 min, to 50% in 2 min, to 85% in 15 min, held 3 min, 100 µL/min
Measurement Context: column: Zorbax Extend-C18 2.1 x 50 mm; eluents: water / acetonitrile, 0.1% formic acid
Note: unit s is implicit; provide only the numeric part.

Field request: RP-LC retention time | item: Cc1nn(CC(=O)N2CCN(c3ccc(Cl)cc3)CC2)c(=O)c2noc(C)c12 821

Field request: RP-LC retention time | item: Cn1c(=O)c2cc(C(=O)Nc3ccc(F)cc3)cnc2n(-c2ccc(F)cc2)c1=O 960

Field request: RP-LC retention time | item: COc1ccccc1NC(=O)c1ccc(CSc2ncccn2)cc1 603

Field request: RP-LC retention time | item: Cc1cccc(NC(=O)C2CCCN(S(=O)(=O)c3c[nH]c(C(=O)N4CCCC4)c3)C2)c1 (centres undefined) 589

Field request: RP-LC retention time | item: CCC(=O)N1CCCN(C2=NS(=O)(=O)C(c3ccc(C)cc3)=C2C)CC1 742

Field request: RP-LC retention time | item: CCC(=O)Nc1ccc2c(c1)CN(C(=O)CCc1ccccc1)C(C(=O)N1CCCC1)C2 (centres undefined) 708

Field request: RP-LC retention time | item: Cc1ccsc1C(=O)N1CCN(c2ccc(=O)n(-c3ccc(Cl)cc3)n2)CC1 878

Field request: RP-LC retention time | item: COc1cc(OC)cc(-c2nc(Cn3cnc4ccccc4c3=O)no2)c1 871

Field request: RP-LC retention time | item: Cc1cc(C(=O)N2CC(c3nc(-c4ccccn4)no3)C2)no1 639

Field request: RP-LC retention time | item: CC(C)S(=O)(=O)c1ccc(C(=O)Nc2onc3c2CCCC3)cc1 732

Field request: RP-LC retention time | item: COCCN1CCC(N2CCN(S(=O)(=O)c3ccc(F)cc3F)CC2)C1=O (centres undefined) 570

Field request: RP-LC retention time | item: Cc1cccc(C)c1NC(=O)C1CCCN(c2nnc(C)c3c(C)n(-c4ccccc4)nc23)C1 (centres undefined) 776

Field request: RP-LC retention time | item: O=C(NCCn1nnc2cc(C(=O)N3CCCC3)ccc21)Nc1ccccc1Br 683

Field request: RP-LC retention time | item: CC(=O)N1CCC(C(=O)N2CCCN(c3cc(-c4ccc(Cl)cc4)[nH]n3)CC2)CC1 648

Field request: RP-LC retention time | item: CCCNC(=O)C1CCCN(c2ccc(SCC(=O)Nc3cccc(C)c3)nn2)C1 (centres undefined) 674

Field request: RP-LC retention time | item: O=c1c2nc(-c3ccc(F)cc3)cn2ccn1-c1ccc(Cl)cc1 867

Field request: RP-LC retention time | item: CCc1cc(C(=O)NCCN2CCOCC2)nc2cc(-c3ccccn3)nn12 592

Field request: RP-LC retention time | item: CCCn1ccc2sc(C)c(C(=O)N3CCN(c4ccc(OC)cc4)CC3)c2c1=O 762

Field request: RP-LC retention time | item: CN(C)C(=O)c1csc(S(=O)(=O)N2CCC(C(=O)NC3CCCC3)CC2)c1 696

----------
Experiment: gradient 5% acetonitrile 3 min, to 50% in 2 min, to 85% in 15 min, held 3 min, 100 µL/min
Measurement Context: column: Zorbax Extend-C18 2.1 x 50 mm; eluents: water / acetonitrile, 0.1% formic acid
The threshold is 900 s. Values of RP-LC retention time beneath it are tagged class 1; values meeting or exceeding it are tagged class 0.

A record lists CCOC(=O)c1c(C)[nH]c(CCC(=O)NCCc2c(C)noc2C)c1C . Is its RP-LC retention time below 900 s? class 1

A record lists O=C(C1CCN(c2cnc3nccnc3c2)CC1)N1CCN(C2CCCCC2)CC1 . Is its RP-LC retention time below 900 s? class 1

A record lists CC1(C(=O)NCc2ccccc2)CN(S(=O)(=O)c2ccccc2)CC(=O)N1C1CCCCCC1 (centres undefined) . Is its RP-LC retention time below 900 s? class 0

A record lists Cc1ccc(C)c(NS(=O)(=O)c2cc3n(c2)CCN(C)C3=O)c1 . Is its RP-LC retention time below 900 s? class 1

A record lists CC(C)Cn1c(=O)c(N2CCN(C(=O)Cc3cccs3)CC2)nc2ccncc21 . Is its RP-LC retention time below 900 s? class 1

A record lists Cc1ccc(Sc2nccnc2N2CCCC(C(=O)NCc3ccccc3Cl)C2)cc1 (centres undefined) . Is its RP-LC retention time below 900 s? class 0

A record lists CCN1C(=O)NC(c2ccccc2C(F)(F)F)C2=C1CN(CCC(=O)NC1CC1)C2=O (centres undefined) . Is its RP-LC retention time below 900 s? class 1

A record lists COCC1CN(C(=O)CN2CCCC2=O)CCC1(F)F (centres undefined) . Is its RP-LC retention time below 900 s? class 1

A record lists CCCn1cc(-c2ccncc2)cc1C(=O)NCc1ccccc1C . Is its RP-LC retention time below 900 s? class 1

A record lists COC(=O)c1ccccc1NC(=O)CSc1nnc2c3cc(-c4ccc(F)cc4)nn3ccn12 . Is its RP-LC retention time below 900 s? class 0

A record lists O=C(Nc1ccc(Cl)cn1)C(=O)c1cccn1Cc1ccccc1 . Is its RP-LC retention time below 900 s? class 0

A record lists COc1ccccc1OCC(=O)N1CCN(c2nc(CN3CCOCC3)cs2)CC1 . Is its RP-LC retention time below 900 s? class 1

A record lists CCn1c(=O)c2cc(C(=O)Nc3ccc(OC)c(OC)c3)nn2c2ccccc21 . Is its RP-LC retention time below 900 s? class 1

A record lists Cc1nc(CCNS(=O)(=O)c2ccc(Oc3ccccc3)cc2)cs1 . Is its RP-LC retention time below 900 s? class 1

A record lists COCCC(=O)N1CCC2(CCC2NC(=O)COC)CC1 (centres undefined) . Is its RP-LC retention time below 900 s? class 1

A record lists CC(C)c1nc(-c2ccc(OC3CCN(S(=O)(=O)c4cn(C)cn4)C3)cc2)no1 (centres undefined) . Is its RP-LC retention time below 900 s? class 1

A record lists Cc1ccc(OCc2nc(C3CN(C(=O)C4(c5ccccc5)CC4)C3)no2)cc1 . Is its RP-LC retention time below 900 s? class 0

A record lists O=[N+]([O-])c1ccccc1CSc1nnc2sc3ccccc3n12 . Is its RP-LC retention time below 900 s? class 1

A record lists CCOC(=O)C1=C(c2ccccc2)NC(SCC)=C(C#N)C1c1cccnc1 (centres undefined) . Is its RP-LC retention time below 900 s? class 1

A record lists Cc1csc(-n2nc(C)c(CC(=O)Nc3cccc(Cl)c3)c2C)n1 . Is its RP-LC retention time below 900 s? class 0

A record lists O=C(C1CC(=O)N(c2ccc(F)cc2)C1)N1CCC(c2c[nH]c3ccccc23)CC1 (centres undefined) . Is its RP-LC retention time below 900 s? class 1

A record lists O=C(NC1CC1)C1CCN(c2nc3ccsc3c(=O)n2Cc2ccccc2)CC1 . Is its RP-LC retention time below 900 s? class 1

A record lists Cc1cccc(C)c1Nc1c(-c2ccccc2F)nc2cccc(C)n12 . Is its RP-LC retention time below 900 s? class 1

A record lists Cc1ncoc1C(=O)N1CC(n2cc(COc3ccc(F)cc3)nn2)C1 . Is its RP-LC retention time below 900 s? class 1

A record lists COc1ccc(C2(C(=O)N3CCC4(CC3)NCCc3c4[nH]c4ccccc34)CC2)cc1 . Is its RP-LC retention time below 900 s? class 1

A record lists Cc1noc(C)c1S(=O)(=O)N1CCCC(c2nc(CNC(=O)C(C)C)cs2)C1 (centres undefined) . Is its RP-LC retention time below 900 s? class 1

A record lists Cc1csc(-c2cc(S(=O)(=O)N3CCN(Cc4ccc5c(c4)OCO5)CC3)c(C)s2)n1 . Is its RP-LC retention time below 900 s? class 1

A record lists Cc1cnc2n(c1=O)C(CC(=O)NCCc1ccc(S(N)(=O)=O)cc1)CS2 (centres undefined) . Is its RP-LC retention time below 900 s? class 1

A record lists O=C(Cn1c(=O)ccc2cc(S(=O)(=O)N3CCCC3)ccc21)N1CCN(c2ccccn2)CC1 . Is its RP-LC retention time below 900 s? class 1

A record lists CCCNc1nccn(C(C)C)c1=O . Is its RP-LC retention time below 900 s? class 1

A record lists O=c1cc(CO)oc(C(Nc2ccccn2)c2cccc(F)c2)c1O (centres undefined) . Is its RP-LC retention time below 900 s? class 1

A record lists Cc1cc2c(c(=O)n(-c3ccc(F)cc3)c(=O)n2CC(=O)Nc2ccccc2Cl)n1C . Is its RP-LC retention time below 900 s? class 1

A record lists CCCN1C(=O)COc2ccc(-c3csc(NC(=O)CC(C)C)n3)cc21 . Is its RP-LC retention time below 900 s? class 0

----------
Experiment: gradient 5% acetonitrile 3 min, to 50% in 2 min, to 85% in 15 min, held 3 min, 100 µL/min
Measurement Context: column: Zorbax Extend-C18 2.1 x 50 mm; eluents: water / acetonitrile, 0.1% formic acid
Binary classification by RP-LC retention time, with 700 s as an inclusive lower bound for 1; all other cases are 0.

Evaluate O=c1[nH]c2cc(Br)cnc2[nH]c1=O : RP-LC retention time at minimum 700 s? 0

Evaluate CCN1c2ccc(F)cc2C(=O)NC12CCN(C(=O)Cc1ccc(OC)cc1)CC2 : RP-LC retention time at minimum 700 s? 1

Evaluate O=C(c1cn2nc(Cl)ccc2n1)N(Cc1ccccc1)Cc1ccco1 : RP-LC retention time at minimum 700 s? 1

Evaluate CCOC(=O)c1c(C)[nH]c(C(=O)N2CCCC(C(=O)NCCC(C)C)C2)c1C (stereo not given) : RP-LC retention time at minimum 700 s? 1

Evaluate COC(=O)c1cnc2nc(C)ccc2c1Nc1ccccc1 : RP-LC retention time at minimum 700 s? 0

Evaluate O=C(Cn1c(=O)oc2ccc(C(=O)N3CCCC3)cc21)N1CCC(Cc2ccccc2)CC1 : RP-LC retention time at minimum 700 s? 1

Evaluate COc1cccc(-n2nnc(-c3nsc(Nc4ccc(OC)c(Cl)c4)n3)c2C)c1 : RP-LC retention time at minimum 700 s? 1

Evaluate COCC(=O)Nc1ccc2nc(N3CCN(CC(=O)N4CCCCC4)CC3)cc(C(=O)O)c2c1 : RP-LC retention time at minimum 700 s? 0

Evaluate CC(C)NC(=O)C1CCCN(c2nc3ncn(CC(=O)Nc4cc(F)cc(F)c4)c(=O)c3s2)C1 (stereo not given) : RP-LC retention time at minimum 700 s? 1

Evaluate O=C(CCS(=O)(=O)c1ccccc1)N1CC(c2nc(-c3cnccn3)no2)C1 : RP-LC retention time at minimum 700 s? 0

Evaluate Cc1ccn2cc(-c3ccc(NC(=O)c4ccccc4)cc3)nc2n1 : RP-LC retention time at minimum 700 s? 0

Evaluate O=C(c1cn(CC(O)c2ccccc2)nn1)N1CCN(c2ccccn2)CC1 (stereo not given) : RP-LC retention time at minimum 700 s? 0

Evaluate COc1ccccc1C(=O)N1CCCC(COc2ccc(C(=O)NC3CC3)cc2)C1 (stereo not given) : RP-LC retention time at minimum 700 s? 1

Evaluate CCn1cc(CCNC(=O)Nc2ccc3c(c2)OCCO3)c2cccnc21 : RP-LC retention time at minimum 700 s? 0

Evaluate Cc1nc(Cn2cccc2C(=O)Nc2ccc(C)c(F)c2)no1 : RP-LC retention time at minimum 700 s? 1

Evaluate CC(C)CCNC(=O)C1(C)CN(S(=O)(=O)c2ccccc2)CC(=O)N1CCCc1ccccc1 (stereo not given) : RP-LC retention time at minimum 700 s? 1
